Hello, the source for this data is patent US10363257B2, in case you need it.

Property: pIC50; scope: individual compounds
tested on: hIL-6 mRNA; assay: Inhibition of hIL-6 mRNA transcription in LPS-stimulated U937 cells; assay type: cell-based; conditions: Homo sapiens, U-937; PMA-differentiated U937 cells, 1 h pretreatment, 1 ug/mL LPS stimulation, 3 h; read-out: IL-6 activity (Inhibition of hIL-6 mRNA Transcription)
pIC50: −log10 of the molar value.

| smiles.text | pIC50 |
| --- | --- |
| Cc1noc(C)c1-c1cnc2nc(N3CCC3)n(CC3CCCC3)c2c1 | ≥ 6.52 |
| Cc1noc(C)c1-c1cnc2[nH]c(=O)n(Cc3cccs3)c2c1 | 5.52 to 6.52 |
| Cc1noc(C)c1-c1cnc2nc(N)n(Cc3ccccc3)c2c1 | ≥ 6.52 |
| Cc1noc(C)c1Cn1c(C)nc2ncc(-c3c(C)noc3C)cc21 | 5.52 to 6.52 |
| Cc1noc(C)c1-c1ccc2[nH]cc(Nc3ccccc3)c2n1 | 5.52 to 6.52 |
| Cc1noc(C)c1-c1nc(N)c2ncn(Cc3ccccc3)c2n1 | 5.52 to 6.52 |
